# assay_procedure: Cyclic voltammetry screening (3-electrode beaker cell)
# Format: physicochemical
# reported_conditions: bipolar compound 5 mM, 0.1 M TBAPF6 in acetonitrile; vs Ag|10 mM AgNO3
observed_property: E^1/2, catholyte (positive) redox event

Example molecules with recorded E^1/2, catholyte (positive) redox event:
molecular_string: COc1ccc(OCc2cccc3ccccc23)cc1
endpoint_value: +0.981 V
//
molecular_string: COc1ccc(OCCc2ccc(/C=C/c3ccccc3)cc2)cc1
endpoint_value: +1.096 V
//
molecular_string: COc1ccc(OCc2ccccc2-c2ccccc2)cc1
endpoint_value: +0.985 V
//
molecular_string: COc1ccc(OCCc2cccc3ccccc23)cc1
endpoint_value: +0.958 V
//
molecular_string: COc1ccc(OCCc2ccccc2-c2ccccc2)cc1
endpoint_value: +0.934 V

Now, please, on to the next molecule.
Looking up "COc1ccc(OCCc2cccc(-c3ccccc3)c2)cc1" , I found its E^1/2, catholyte (positive) redox event recorded as +0.953 V

* * *

# assay_procedure: Cyclic voltammetry screening (3-electrode beaker cell)
# Type: physicochemical
# reported_conditions: bipolar compound 5 mM, 0.1 M TBAPF6 in acetonitrile
observed_property: Ecell^0 (cell voltage) (V)
Could you give me the number in V? Just the number is fine.

compound: COc1ccc(OCCc2cccc3ccccc23)cc1 [Entry 1]
Ecell^0 (cell voltage) (V): 3.82
//
compound: COc1ccc(OCCc2cccc(-c3ccccc3)c2)cc1 [Entry 3]
Ecell^0 (cell voltage) (V): 3.93
//
compound: COc1ccc(OCCc2ccc(/C=C/c3ccccc3)cc2)cc1 [Entry 6]
Ecell^0 (cell voltage) (V): 3.73

Now, please, on to the next compound.
Looking up COc1ccc(OCCc2ccccc2-c2ccccc2)cc1 [Entry 4] , I found its Ecell^0 (cell voltage) recorded as 3.82

* * *

Items are presented alongside their recorded E1/2^0 (half-cell potential, arithmetic average of anode and cathode peaks).
# assay_procedure: Cyclic voltammetry screening (3-electrode beaker cell)
# Type: physicochemical
# reported_conditions: 5 mM redox species, 0.1 M TBAPF6 in acetonitrile, 100 mV/s; Ag|10 mM AgNO3 reference
Could you give me the number in V vs Ag|Ag^+? Just the number is fine.

Example molecules with recorded E1/2^0 (half-cell potential, arithmetic average of anode and cathode peaks):
molecule: C(=C\c1ccccc1)/c1ccccc1 [trans-stilbene, reference compound]
endpoint_value: −2.571
--
molecule: c1ccc(-c2ccccc2)cc1 [biphenyl, reference compound]
endpoint_value: −2.987

Now, please, on to the next molecule.
Looking up Cc1cccc2ccccc12 [1-methylnaphthalene, reference compound] , I found its E1/2^0 (half-cell potential, arithmetic average of anode and cathode peaks) recorded as −2.909

* * *

# assay_procedure: Room temperature solubility in acetonitrile
# Format: physicochemical
# reported_conditions: organic solvent or mixture, moles per liter of solution, read-out: MeCN solubility
observed_property: solubility (mM)
Could you give me the number in mM? Just the number is fine.

molecule: c1ccc(-c2ccccc2)cc1 [biphenyl, reference compound]
solubility / mM: 1730
//
molecule: C(=C\c1ccccc1)/c1ccccc1 [trans-stilbene, reference compound]
solubility / mM: 1070

Looking up COc1ccc(OC)cc1 [p-dimethoxybenzene, reference compound] , I found its solubility recorded as 600

* * *

# assay_procedure: Cyclic voltammetry screening (3-electrode beaker cell)
# Assay type: physicochemical
# reported_conditions: bipolar compound 5 mM, 0.1 M TBAPF6 in acetonitrile; vs Ag|10 mM AgNO3
Items are presented alongside their recorded E^1/2, anolyte (negative) redox event.
Could you give me the number in V? Just the number is fine.

molecular_string: COc1ccc(OCCc2ccccc2-c2ccccc2)cc1
E^1/2, anolyte (negative) redox event [V]: −1.217

Looking up "COc1ccc(OCCc2cccc(-c3ccccc3)c2)cc1" , I found its E^1/2, anolyte (negative) redox event recorded as −2.976

Looking up "COc1ccc(CCOc2ccc(/C=C/c3ccccc3)cc2)cc1" , I found its E^1/2, anolyte (negative) redox event recorded as −2.665

Looking up "COc1ccc(OCCc2ccc(/C=C/c3ccccc3)cc2)cc1" , I found its E^1/2, anolyte (negative) redox event recorded as −2.632

Looking up "COc1ccc(OCCc2cccc3ccccc23)cc1" , I found its E^1/2, anolyte (negative) redox event recorded as −2.857
